B1: TPR 5TU (parent)
chain: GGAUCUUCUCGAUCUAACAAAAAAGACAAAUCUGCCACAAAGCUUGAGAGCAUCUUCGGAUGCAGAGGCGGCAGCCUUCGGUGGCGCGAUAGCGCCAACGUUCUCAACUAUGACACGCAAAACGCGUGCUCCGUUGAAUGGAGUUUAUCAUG

# Variants of: B1
# experimental.details: polymerase ribozyme fitness, log enrichment relative to wild type (log ratio); higher = more active; in vitro selection for triplet polymerase activity
Fewer inactive variants are shown than the library holds.
endpoint.name: polymerase ribozyme fitness (log ratio)

The value of polymerase ribozyme fitness (log ratio) measured for the variant A52U U61G A91G C96A G117C turned out to be -3.76

The value of polymerase ribozyme fitness (log ratio) measured for the variant A89G G124U turned out to be -1.93

The value of polymerase ribozyme fitness (log ratio) measured for the variant C32A U61A C63G A66U U77G turned out to be ≤ -4.2

The value of polymerase ribozyme fitness (log ratio) measured for the variant A16U C57A C99G U104C turned out to be -3.73
